pKi: −log10 of the molar value.
Reported pKi for target or system Coagulation factor X (Homo sapiens), by entry.
property_measured: pKi

[[record]]
structure_smiles_string = "CNC(=O)CCCC1CCN(C(=O)[C@H](Cc2cccc(C(=N)N)c2)NS(=O)(=O)c2cccc(-c3ccccc3F)c2)CC1"
property_measured = "pKi"
recorded_number = 5.96

[[record]]
structure_smiles_string = "N=C(N)c1cccc(C[C@H](NS(=O)(=O)c2cccc(-c3ccc(Cl)cc3Cl)c2)C(=O)N2CCC(NC(=O)NC3CCCCC3)CC2)c1"
property_measured = "pKi"
recorded_number = 7.70

[[record]]
structure_smiles_string = "CCOc1ccc(-c2cccc(S(=O)(=O)N[C@@H](Cc3cccc(C(=N)N)c3)C(=O)N3CCC(CCCC(=O)NC)CC3)c2)c(Cl)c1"
property_measured = "pKi"
recorded_number = 6.74

[[record]]
structure_smiles_string = "N=C(N)c1cccc(C[C@H](NS(=O)(=O)c2cccc(NC(=O)CCN)c2)C(=O)N2CCC(NC(=O)NC3CCCCC3)CC2)c1"
property_measured = "pKi"
recorded_number = 5.92

[[record]]
structure_smiles_string = "N=C(N)c1cccc(C[C@H](NS(=O)(=O)c2cccc(NC(=O)CCN)c2)C(=O)N2CCC(NC(N)=O)CC2)c1"
property_measured = "pKi"
recorded_number = 4.77

[[record]]
structure_smiles_string = "CNC(=O)NCCC1CCN(C(=O)[C@H](Cc2cccc(C(=N)N)c2)NS(=O)(=O)c2cccc(-c3ccc(Cl)cc3Cl)c2)CC1"
property_measured = "pKi"
recorded_number = 7.54

[[record]]
structure_smiles_string = "N=C(N)c1cccc(C[C@H](NS(=O)(=O)c2cccc(NC(=O)CCN)c2)C(=O)N2CCC(CCNC(=O)NCc3ccccc3)CC2)c1"
property_measured = "pKi"
recorded_number = 5.26

